Data export: IC50 values recorded with UniProt O95551.
Sequence (O95551 whole entry): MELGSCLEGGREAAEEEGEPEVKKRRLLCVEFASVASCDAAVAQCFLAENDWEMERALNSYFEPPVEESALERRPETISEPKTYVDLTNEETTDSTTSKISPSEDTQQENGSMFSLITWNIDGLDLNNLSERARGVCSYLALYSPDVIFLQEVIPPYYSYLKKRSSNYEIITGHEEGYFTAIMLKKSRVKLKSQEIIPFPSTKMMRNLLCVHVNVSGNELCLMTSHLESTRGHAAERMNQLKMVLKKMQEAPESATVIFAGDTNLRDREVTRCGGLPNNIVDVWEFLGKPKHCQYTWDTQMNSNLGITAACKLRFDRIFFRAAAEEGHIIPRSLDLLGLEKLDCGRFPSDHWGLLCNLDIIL
Lab book: enter the figure in µM, no units written.

{"smiles": "NCCCn1c2c(c3ccncc3c1=O)C(=O)c1ccccc1-2", "assay readout": "IC50", "experimental value": 111}

Shifting focus to the molecule that follows.
Asked: Record request: IC50 value, item NCCCn1c2c(c3cnccc3c1=O)C(=O)c1ccccc1-2
Given back: 111

* * *

Target: UniProtKB P11387
Sequence (P11387 whole entry): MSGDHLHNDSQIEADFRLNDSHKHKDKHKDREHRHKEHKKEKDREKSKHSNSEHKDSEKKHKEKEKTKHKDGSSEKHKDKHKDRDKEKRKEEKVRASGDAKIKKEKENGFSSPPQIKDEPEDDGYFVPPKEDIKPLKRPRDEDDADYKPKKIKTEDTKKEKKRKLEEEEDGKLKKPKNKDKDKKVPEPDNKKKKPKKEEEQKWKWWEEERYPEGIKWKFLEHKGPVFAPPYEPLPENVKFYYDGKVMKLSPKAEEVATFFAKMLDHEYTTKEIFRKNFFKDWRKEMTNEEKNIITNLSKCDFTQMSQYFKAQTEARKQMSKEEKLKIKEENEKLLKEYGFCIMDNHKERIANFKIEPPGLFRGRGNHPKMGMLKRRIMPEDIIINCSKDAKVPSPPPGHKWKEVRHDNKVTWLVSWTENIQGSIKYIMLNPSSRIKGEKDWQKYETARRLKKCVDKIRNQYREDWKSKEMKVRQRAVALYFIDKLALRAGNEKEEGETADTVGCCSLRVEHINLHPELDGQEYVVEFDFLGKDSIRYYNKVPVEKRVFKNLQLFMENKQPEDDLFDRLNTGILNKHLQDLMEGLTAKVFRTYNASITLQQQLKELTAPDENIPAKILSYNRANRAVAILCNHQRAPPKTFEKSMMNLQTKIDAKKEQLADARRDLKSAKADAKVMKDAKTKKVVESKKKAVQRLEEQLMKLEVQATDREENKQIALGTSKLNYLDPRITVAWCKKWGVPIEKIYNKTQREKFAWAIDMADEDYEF
Test: Activity at recombinant top1 (unknown origin) assessed as DNA cleavage using 3'-[32P]-labeled 117-bp DNA as substrate at 0.1 to 100 uM after 20 mins by SDS-PAGE
# Activity annotations
Express your answer in %, writing the number without its unit.

Some molecules with known Activity results, for comparison:
{"smiles": "O=C1c2ccccc2-c2c1c1ccccc1c(=O)n2C[C@H](O)CO", "unit abbreviation": "%", "experimental value": 75}
{"smiles": "O=C1c2ccccc2-c2c1c1ncccc1c(=O)n2C[C@H](O)CO", "unit abbreviation": "%", "experimental value": 20}
{"smiles": "O=C1c2ccccc2-c2c1c1cccnc1c(=O)n2C[C@H](O)CO", "unit abbreviation": "%", "experimental value": 20}
{"smiles": "O=C1c2ccccc2-c2c1c1ncccc1c(=O)n2CCCn1ccnc1", "unit abbreviation": "%", "experimental value": 50}
{"smiles": "NCCCn1c2c(c3cnccc3c1=O)C(=O)c1ccccc1-2", "unit abbreviation": "%", "experimental value": 50}
{"smiles": "O=C1c2ccccc2-c2c1c1cccnc1c(=O)n2CCCn1ccnc1", "unit abbreviation": "%", "experimental value": 75}
{"smiles": "CN(C)CCCn1c2c(c3cccnc3c1=O)C(=O)c1ccccc1-2", "unit abbreviation": "%", "experimental value": 75}
{"smiles": "O=C1c2ccccc2-c2c1c1ccncc1c(=O)n2C[C@H](O)CO", "unit abbreviation": "%", "experimental value": 50}
{"smiles": "O=C1c2ccccc2-c2c1c1ccccc1c(=O)n2CCCN1CCOCC1", "unit abbreviation": "%", "experimental value": 50}
{"smiles": "NCCCn1c2c(c3ccccc3c1=O)C(=O)c1ccccc1-2", "unit abbreviation": "%", "experimental value": 75}

Now consider a different molecule.
Asked: Which Activity is reported with UniProtKB P11387 for this entry: CN(C)CCCn1c2c(c3ccccc3c1=O)C(=O)c1ccccc1-2 ?
Given back: 75

* * *

Biological target: Tyrosyl-DNA phosphodiesterase 1 (Homo sapiens, UniProt Q9NUW8)
Sequence (Q9NUW8 whole entry): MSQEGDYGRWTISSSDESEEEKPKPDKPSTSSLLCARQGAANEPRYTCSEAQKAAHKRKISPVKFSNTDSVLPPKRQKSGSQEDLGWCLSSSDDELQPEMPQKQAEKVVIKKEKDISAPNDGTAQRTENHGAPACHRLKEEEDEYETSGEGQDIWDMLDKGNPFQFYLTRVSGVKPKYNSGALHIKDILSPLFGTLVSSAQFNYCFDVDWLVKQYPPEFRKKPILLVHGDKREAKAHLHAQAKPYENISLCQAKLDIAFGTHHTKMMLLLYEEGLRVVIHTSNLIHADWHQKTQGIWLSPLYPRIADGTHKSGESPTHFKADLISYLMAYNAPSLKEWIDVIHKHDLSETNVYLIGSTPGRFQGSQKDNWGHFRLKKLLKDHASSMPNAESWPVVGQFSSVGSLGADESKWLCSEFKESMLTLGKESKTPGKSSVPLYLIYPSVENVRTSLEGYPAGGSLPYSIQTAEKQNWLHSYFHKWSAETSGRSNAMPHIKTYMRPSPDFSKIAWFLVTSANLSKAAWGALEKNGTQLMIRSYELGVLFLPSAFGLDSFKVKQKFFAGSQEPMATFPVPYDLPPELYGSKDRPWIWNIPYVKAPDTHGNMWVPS
assay readout: pIC50
# reply with the number alone; pIC50 is -log10 of concentration in mol/L

Asked: // query pIC50 value for entry CN(C)CCCn1c2c(c3cccnc3c1=O)C(=O)c1ccccc1-2
Given back: 3.95

* * *

Experiment: Antiproliferative activity against human OVCAR3 cells after 48 hrs
Type: functional
Conditions: OVCAR-3, 48 h
// reported log10 GI50 for each item listed
Log10 applied to GI50; unit prior to transform: µM.

Please review the entries below; each comes with its answer.
{"smiles": "CN(C)CCCn1c2c(c3cnccc3c1=O)C(=O)c1ccccc1-2", "assay readout": "log10 GI50", "experimental value": 0.04}
{"smiles": "NCCCn1c2c(c3cccnc3c1=O)C(=O)c1ccccc1-2", "assay readout": "log10 GI50", "experimental value": 0.36}
{"smiles": "CN(C)CCCn1c2c(c3cccnc3c1=O)C(=O)c1ccccc1-2", "assay readout": "log10 GI50", "experimental value": 0.38}
{"smiles": "CC[C@@]1(O)C(=O)OCc2c1cc1n(c2=O)Cc2cc3ccccc3nc2-1", "assay readout": "log10 GI50", "experimental value": -0.66}

// next item, log10 GI50 requested
Asked: Any idea what its log10 GI50 is? The molecule is CN(C)CCCn1c2c(c3ccncc3c1=O)C(=O)c1ccccc1-2
Given back: 0.30

These data points were gathered from ChEMBL document CHEMBL3808281.
